- Tested target: LOX2 (Arabidopsis thaliana, UniProt P38418)
- Sequence (P38418 71-896): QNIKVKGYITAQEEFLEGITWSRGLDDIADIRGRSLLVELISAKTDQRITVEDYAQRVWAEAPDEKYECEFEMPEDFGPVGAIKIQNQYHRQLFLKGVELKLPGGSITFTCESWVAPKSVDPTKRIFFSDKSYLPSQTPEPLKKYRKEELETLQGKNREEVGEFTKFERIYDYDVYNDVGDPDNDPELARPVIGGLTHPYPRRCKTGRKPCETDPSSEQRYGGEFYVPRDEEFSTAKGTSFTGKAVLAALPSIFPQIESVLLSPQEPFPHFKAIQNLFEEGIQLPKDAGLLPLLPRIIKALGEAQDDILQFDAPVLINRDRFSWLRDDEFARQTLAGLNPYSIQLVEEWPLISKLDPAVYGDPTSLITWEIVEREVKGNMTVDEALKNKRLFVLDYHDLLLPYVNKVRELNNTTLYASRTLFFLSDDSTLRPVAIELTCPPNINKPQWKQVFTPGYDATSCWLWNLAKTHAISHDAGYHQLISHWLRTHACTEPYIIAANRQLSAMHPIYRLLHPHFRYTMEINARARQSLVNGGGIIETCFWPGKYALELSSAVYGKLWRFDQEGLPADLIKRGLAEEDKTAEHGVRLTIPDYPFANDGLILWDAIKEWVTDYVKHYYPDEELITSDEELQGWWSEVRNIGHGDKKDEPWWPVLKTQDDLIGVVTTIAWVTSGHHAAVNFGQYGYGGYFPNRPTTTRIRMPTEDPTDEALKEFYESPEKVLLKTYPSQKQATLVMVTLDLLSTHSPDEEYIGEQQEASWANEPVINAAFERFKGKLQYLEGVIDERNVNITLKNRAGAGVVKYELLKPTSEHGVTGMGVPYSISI
pIC50: −log10 of the molar value.
Observable: pIC50

*Q* Write down the reported pIC50 of CCC=CCC1C(=O)C=CC1CCCCCCCC(=O)O (stereo not drawn) [12-OPDA, cis-(+)-12-oxophytodienoic acid] , test system: LOX2 (Arabidopsis thaliana, UniProt P38418).
*A* 3.47 to 3.55

----------
- Tested target: LOX6 (Arabidopsis thaliana, UniProt Q9CAG3)
- Sequence (Q9CAG3 41-917): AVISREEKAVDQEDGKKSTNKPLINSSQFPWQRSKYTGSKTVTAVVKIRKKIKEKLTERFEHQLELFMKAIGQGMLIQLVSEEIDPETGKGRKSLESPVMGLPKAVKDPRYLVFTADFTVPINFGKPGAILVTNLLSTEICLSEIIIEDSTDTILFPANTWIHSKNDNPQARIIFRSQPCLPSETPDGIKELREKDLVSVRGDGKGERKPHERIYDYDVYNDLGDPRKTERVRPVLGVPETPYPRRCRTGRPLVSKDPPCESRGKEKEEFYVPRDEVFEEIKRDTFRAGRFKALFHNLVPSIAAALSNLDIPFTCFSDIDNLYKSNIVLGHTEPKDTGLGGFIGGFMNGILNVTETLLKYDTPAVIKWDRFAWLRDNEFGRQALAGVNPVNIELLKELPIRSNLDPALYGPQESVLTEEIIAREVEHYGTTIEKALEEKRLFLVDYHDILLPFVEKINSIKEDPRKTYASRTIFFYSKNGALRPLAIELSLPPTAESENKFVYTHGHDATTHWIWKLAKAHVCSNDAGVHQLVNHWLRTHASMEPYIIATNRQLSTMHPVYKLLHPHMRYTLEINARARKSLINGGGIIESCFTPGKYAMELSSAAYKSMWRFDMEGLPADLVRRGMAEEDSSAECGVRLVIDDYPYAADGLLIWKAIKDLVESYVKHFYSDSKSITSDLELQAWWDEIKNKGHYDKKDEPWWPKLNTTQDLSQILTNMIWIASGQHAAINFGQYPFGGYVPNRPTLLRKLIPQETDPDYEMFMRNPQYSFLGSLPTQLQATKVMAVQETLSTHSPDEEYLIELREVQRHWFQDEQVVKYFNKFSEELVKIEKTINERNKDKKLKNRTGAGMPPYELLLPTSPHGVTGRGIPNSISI
Observable: IC50

*Q* GET /values?readout=IC50&item= CCC=CCC1C(=O)C=CC1CCCCCCCC(=O)O (stereo not drawn) [12-OPDA, cis-(+)-12-oxophytodienoic acid]
*A* 280 to 338 µM

----------
activity at 280 µM reference
- Tested target: UniProtKB Q9CAG3
- Sequence (Q9CAG3 41-917): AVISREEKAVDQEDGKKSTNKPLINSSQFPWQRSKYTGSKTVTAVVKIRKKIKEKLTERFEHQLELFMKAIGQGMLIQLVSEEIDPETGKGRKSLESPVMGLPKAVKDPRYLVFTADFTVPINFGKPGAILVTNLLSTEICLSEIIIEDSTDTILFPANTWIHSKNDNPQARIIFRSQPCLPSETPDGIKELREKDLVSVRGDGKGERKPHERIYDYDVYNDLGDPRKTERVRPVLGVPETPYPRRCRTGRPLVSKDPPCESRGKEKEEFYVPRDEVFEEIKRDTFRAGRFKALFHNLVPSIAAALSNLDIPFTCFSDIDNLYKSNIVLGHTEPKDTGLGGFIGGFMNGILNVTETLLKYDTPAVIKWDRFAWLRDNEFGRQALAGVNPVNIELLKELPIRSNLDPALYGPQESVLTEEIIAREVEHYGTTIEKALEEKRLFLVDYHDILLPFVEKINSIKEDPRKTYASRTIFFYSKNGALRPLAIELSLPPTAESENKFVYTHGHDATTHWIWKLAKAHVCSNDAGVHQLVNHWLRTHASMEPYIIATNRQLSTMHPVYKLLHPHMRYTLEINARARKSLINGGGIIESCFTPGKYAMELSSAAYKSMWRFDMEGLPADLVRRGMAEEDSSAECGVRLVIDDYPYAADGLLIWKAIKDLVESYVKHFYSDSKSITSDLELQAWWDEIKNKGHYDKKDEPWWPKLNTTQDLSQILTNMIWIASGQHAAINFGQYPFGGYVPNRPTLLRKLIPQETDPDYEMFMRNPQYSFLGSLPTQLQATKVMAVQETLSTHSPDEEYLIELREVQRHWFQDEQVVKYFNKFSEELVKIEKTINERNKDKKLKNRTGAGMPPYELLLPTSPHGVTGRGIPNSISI
- Experiment notes: LOX6 activity, oxygen electrode (polarography)
- Type: biochemical
- Parameters: made in house; host or cells: E. coli Nico21(DE3), pEXP5-NT/TOPO
- Test parameters: enzyme incubated with 280 µM chemical (1/10 vol of 2.8 mM), injected into 30 µM LeA, 50 mM Tris-HCl pH 7.2; vs solvent control; read-out: Polarography Relative Activity (%) LOX6
Quick note: give the figure in %, leave out the unit.

O=C(O)/C=C/CCCCCCCCC(=O)O = 101
O=C(O)c1ccccc1O = 103
CCC=CCC1C(=O)C=CC1CCCCCCCC(=O)O (stereo not drawn) [12-OPDA, cis-(+)-12-oxophytodienoic acid] = 50

*Q* GET /values?readout=activity at 280 µM&item= CC/C=C\CC1C(=O)CCC1CC(=O)OC (stereo not shown) [MJ, methyl jasmonate]
*A* 94

----------
- Tested target: LOX4 (Arabidopsis thaliana, UniProt Q9FNX8)
- Sequence (Q9FNX8 71-926): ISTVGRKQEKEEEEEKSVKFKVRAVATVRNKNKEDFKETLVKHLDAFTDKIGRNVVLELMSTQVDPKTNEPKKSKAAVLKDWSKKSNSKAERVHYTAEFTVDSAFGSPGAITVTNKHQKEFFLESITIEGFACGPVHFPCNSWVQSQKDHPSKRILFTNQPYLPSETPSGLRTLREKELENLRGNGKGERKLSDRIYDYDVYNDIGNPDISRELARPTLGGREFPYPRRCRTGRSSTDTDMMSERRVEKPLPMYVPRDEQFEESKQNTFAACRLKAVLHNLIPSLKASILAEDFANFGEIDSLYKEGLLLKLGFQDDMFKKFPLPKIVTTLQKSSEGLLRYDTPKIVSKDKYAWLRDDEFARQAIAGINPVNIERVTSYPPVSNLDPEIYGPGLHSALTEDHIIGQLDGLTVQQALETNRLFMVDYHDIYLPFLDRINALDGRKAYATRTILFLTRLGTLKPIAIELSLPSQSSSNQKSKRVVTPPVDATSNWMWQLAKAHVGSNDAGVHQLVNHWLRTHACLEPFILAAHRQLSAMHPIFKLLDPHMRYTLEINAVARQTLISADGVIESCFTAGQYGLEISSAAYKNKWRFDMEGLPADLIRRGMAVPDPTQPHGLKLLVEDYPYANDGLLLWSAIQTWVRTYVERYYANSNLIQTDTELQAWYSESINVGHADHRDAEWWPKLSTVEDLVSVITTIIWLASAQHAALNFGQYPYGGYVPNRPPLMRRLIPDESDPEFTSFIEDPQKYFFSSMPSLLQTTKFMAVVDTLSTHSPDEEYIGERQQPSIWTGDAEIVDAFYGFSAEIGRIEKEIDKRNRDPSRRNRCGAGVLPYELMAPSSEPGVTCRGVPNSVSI
- Experiment notes: LOX4 activity, oxygen electrode (polarography)
- Format: biochemical
- Set-up: made in house; host or cells: E. coli Nico21(DE3), pET15b
- Test parameters: enzyme incubated with 280 µM chemical (1/10 vol of 2.8 mM), injected into 30 µM LeA, 50 mM Tris-HCl pH 7.2; vs solvent control; read-out: Polarography Relative Activity (%) LOX4
activity at 280 µM reference
The reply should read as a number followed by its unit.

Illustrative cases are given below, each with its answer.
CCC=CCC1C(=O)C=CC1CCCCCCCC(=O)O (stereo not drawn) [12-OPDA, cis-(+)-12-oxophytodienoic acid] = 21%
O=C(O)/C=C/CCCCCCCCC(=O)O [TA, traumatic acid] = 100%
CC/C=C\CC1C(=O)CCC1CC(=O)OC (stereo not shown) [MJ, methyl jasmonate] = 95%

Continue with the compound presented below.
*Q* GET /values?readout=activity at 280 µM&item= O=C(O)c1ccccc1O [SA, salicylic acid]
*A* 101%

----------
- Tested target: LOX4 (Arabidopsis thaliana, UniProt Q9FNX8)
- Experiment notes: LOX4 activity, spectrophotometric (conjugated diene formation at 234 nm)
- Test parameters: substrate specificity; 31 µM PUFA, 4 µg 13-LOX, 50 mM Tris-HCl pH 7.2; LeA = 100%
Relative Activity (%) LOX4 reference
Quick note: give the figure in %, leave out the unit.

CCCCC/C=C\C/C=C\C/C=C\C/C=C\CCCC(=O)O = 4
CC/C=C\C/C=C\C/C=C\C/C=C\C/C=C\C/C=C\CCC(=O)O = 8
CC/C=C\C/C=C\C/C=C\CCCCCCCC(=O)O = 100

*Q* GET /values?readout=Relative Activity (%) LOX4&item= `CCCCC/C=C\C/C=C\CCCCCCCC(=O)O`
*A* 11

----------
- Tested target: LOX3 (Arabidopsis thaliana)
- Sequence (Q9LNR3 71-919): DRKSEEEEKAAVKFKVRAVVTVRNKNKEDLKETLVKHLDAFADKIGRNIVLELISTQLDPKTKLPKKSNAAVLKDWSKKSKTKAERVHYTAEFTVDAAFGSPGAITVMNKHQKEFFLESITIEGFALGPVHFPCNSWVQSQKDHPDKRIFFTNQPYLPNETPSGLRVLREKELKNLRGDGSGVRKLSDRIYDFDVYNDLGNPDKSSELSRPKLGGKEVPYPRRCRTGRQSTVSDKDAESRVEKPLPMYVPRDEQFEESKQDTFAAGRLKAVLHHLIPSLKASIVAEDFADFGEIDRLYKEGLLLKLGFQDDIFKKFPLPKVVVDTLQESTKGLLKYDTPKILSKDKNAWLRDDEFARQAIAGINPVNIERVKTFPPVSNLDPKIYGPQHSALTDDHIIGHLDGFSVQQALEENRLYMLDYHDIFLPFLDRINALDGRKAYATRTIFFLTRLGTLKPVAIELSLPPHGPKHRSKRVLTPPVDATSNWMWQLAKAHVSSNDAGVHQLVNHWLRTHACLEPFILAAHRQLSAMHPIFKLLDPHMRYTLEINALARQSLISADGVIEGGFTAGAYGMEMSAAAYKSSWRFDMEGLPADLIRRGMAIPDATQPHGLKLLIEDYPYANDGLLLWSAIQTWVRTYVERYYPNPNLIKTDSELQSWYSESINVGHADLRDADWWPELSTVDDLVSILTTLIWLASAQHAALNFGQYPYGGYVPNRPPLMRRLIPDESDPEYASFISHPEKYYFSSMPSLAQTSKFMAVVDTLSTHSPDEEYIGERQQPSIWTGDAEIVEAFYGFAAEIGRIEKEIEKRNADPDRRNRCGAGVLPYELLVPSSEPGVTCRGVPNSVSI
Observable: Ki (µM)
Quick note: give the figure in µM, leave out the unit.

*Q* GET /values?readout=Ki&item= CCC=CCC1C(=O)C=CC1CCCCCCCC(=O)O (stereo not drawn) [12-OPDA, cis-(+)-12-oxophytodienoic acid]
*A* 13

*Q* And CC/C=C\CC1C(=O)CCC1CC(=O)OC (centres unmarked) [MJ, methyl jasmonate] ?
*A* 295

----------
- Tested target: LOX6 (Arabidopsis thaliana)
- Sequence (Q9CAG3 41-917): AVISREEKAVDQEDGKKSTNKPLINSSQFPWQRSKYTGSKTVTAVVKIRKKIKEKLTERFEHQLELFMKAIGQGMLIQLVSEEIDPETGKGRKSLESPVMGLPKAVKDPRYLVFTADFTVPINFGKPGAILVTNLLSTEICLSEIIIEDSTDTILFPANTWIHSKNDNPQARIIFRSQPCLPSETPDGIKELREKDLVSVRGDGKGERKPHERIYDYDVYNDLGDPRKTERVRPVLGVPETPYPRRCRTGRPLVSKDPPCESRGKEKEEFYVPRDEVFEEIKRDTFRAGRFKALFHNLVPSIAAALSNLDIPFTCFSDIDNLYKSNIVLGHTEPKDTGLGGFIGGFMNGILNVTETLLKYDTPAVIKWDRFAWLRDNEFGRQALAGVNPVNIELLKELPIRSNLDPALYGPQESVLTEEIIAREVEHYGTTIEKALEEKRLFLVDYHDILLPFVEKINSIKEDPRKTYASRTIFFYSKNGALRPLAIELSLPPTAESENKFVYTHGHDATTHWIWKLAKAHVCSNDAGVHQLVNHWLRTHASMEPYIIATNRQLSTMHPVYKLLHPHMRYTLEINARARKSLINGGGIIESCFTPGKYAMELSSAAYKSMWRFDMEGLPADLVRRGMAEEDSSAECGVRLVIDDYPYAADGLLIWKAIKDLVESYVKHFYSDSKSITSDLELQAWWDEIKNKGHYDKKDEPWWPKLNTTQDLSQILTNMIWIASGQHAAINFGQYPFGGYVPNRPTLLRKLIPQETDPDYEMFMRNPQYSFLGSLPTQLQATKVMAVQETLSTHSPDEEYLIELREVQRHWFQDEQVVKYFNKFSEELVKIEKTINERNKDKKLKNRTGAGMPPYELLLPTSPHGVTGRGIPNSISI
- Experiment notes: LOX6 activity, spectrophotometric (conjugated diene formation at 234 nm)
- Test parameters: substrate specificity; 31 µM PUFA, 4 µg 13-LOX, 50 mM Tris-HCl pH 7.2; LeA = 100%
Observable: Relative Activity (%) LOX6
Quick note: give the figure in %, leave out the unit.

*Q* GET /values?readout=Relative Activity (%) LOX6&item= `CC/C=C\C/C=C\C/C=C\C/C=C\C/C=C\C/C=C\CCC(=O)O`
*A* 31

*Q* And `CC/C=C\C/C=C\C/C=C\CCCCCCCC(=O)O` ?
*A* 100

*Q* And `CCCCC/C=C\C/C=C\CCCCCCCC(=O)O` ?
*A* 17

*Q* And `CCCCC/C=C\C/C=C\C/C=C\C/C=C\CCCC(=O)O` ?
*A* 8
